Numbers sourced from patent US20230012273A1.

molecular target: T1, full-length human SIRPγ N→D on Expi-CHO cells (human, UniProt Q9P1W8 29-387); assay: flow cytometry, Expi-CHO cells
T1 construct: the entry already carries the change (PENV to PEDV)
T1 sequence (Q9P1W8 29-387 N129D): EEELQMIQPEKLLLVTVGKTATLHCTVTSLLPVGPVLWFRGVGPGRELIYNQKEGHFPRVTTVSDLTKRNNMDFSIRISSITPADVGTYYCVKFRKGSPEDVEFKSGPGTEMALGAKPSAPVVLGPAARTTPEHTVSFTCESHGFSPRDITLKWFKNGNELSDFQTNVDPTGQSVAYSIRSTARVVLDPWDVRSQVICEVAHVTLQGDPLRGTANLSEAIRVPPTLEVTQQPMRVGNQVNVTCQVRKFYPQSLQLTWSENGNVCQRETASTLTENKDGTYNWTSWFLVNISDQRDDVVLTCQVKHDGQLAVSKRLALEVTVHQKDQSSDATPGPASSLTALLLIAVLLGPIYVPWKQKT
value-type: EC50 (pM)
Answers are plain numbers, in pM.

binder	value-unit	EC50
Anti-SIRPα antibody KWAR23 (antibody, V domains shown) VH: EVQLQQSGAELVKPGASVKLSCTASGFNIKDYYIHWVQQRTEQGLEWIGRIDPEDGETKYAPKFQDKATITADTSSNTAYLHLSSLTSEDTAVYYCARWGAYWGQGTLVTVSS VL: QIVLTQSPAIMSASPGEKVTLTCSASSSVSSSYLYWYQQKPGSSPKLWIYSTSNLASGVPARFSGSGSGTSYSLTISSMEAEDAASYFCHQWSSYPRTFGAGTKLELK	pM	300

// for each binder in input: emit EC50
1. Antibody B (antibody, human IgG1, kappa, L234A L235A, V domains shown) VH: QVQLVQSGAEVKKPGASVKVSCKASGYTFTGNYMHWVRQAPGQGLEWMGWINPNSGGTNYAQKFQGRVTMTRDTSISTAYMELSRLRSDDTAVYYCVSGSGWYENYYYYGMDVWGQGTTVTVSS VL: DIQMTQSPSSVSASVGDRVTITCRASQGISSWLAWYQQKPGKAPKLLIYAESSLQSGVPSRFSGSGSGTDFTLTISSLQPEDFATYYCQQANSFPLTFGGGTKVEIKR
2. Antibody D (antibody, human IgG1, kappa, L234A L235A, V domains shown) VH: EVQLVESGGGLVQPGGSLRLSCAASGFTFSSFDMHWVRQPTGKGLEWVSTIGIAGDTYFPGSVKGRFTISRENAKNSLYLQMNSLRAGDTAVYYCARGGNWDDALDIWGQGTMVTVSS VL: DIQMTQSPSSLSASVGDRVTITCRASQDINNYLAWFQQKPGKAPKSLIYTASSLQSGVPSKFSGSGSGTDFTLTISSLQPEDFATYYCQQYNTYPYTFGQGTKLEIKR

a:
1: 4800; 2: 300
